Each recorded value in this set is attributed to the supplement of paper PMC10567573.

B1: P2RY14 (parent)
chain: KLLSVIVWMLMLLLAVPNIILTNQ

- Variants of: B1
- TEST_DETAILS: protein stability index of a GFP-peptide fusion (GPS, HEK-293T) (PSI 1-6); higher = more stable;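 note: lentivirally expressed fusions sorted by FACS into six bins by GFP to DsRed ratio, PSI derived from sequencing read proportions per bin multiplied by bin number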
- MEASUREMENT_PARAMETERS: c terminus: a fixed tail appended
PROPERTY_NAME: protein stability index

1) N18C; 2.1
2) M11F; 3.31
3) A15C; 3.31
4) L13R; 2.15
5) V5H; 3.85
6) L12F; 2.59
7) L14M; 3.33
8) N23Y; 2.21
9) L13K; 1.78
10) M9S; 3.82
11) L21G; 3.21
12) W8F; 2.3
13) S4T; 2.53
14) W8T; 3.35
15) I20S; 3.35
16) L14C; 2.41
17) L2P; 3.19
18) V7E; 2.65
19) W8Q; 1.99
20) I6R; 2.43
21) L10H; 3.63
22) V7K; 4.05
23) V7R; 2.31
24) L10F; 3.32
25) L14I; 2.49
26) L12A; 2.7
27) N18A; 1.99
28) T22L; 2.2
29) S4F; 2.98
30) A15V; 2.77
31) L14T; 3.16
32) I20A; 2.31
33) V7W; 4.44
34) L3N; 4.61
35) K1W; 1.35
36) L10G; 2.08
37) S4N; 2.81
38) L3T; 2.93
39) N18P; 2.78
40) S4W; 4.74
41) L10M; 3.84
42) L12H; 2.22
43) I19R; 2.2
44) L10Y; 3.48
45) P17A; 2.56
46) A15H; 3.28
47) V5P; 2.54
48) L14S; 3.42
49) T22S; 3.96
50) S4I; 2.44
51) P17S; 3.12
52) I19Q; 1.89
53) L10C; 1.39
54) M9L; 3.19
55) T22N; 2.75
56) P17C; 2.41
57) N23H; 3.59
58) I20Y; 3.09
59) V7H; 2.11
60) W8N; 2.41
61) M11E; 2.06
62) M11D; 4.89
63) M9A; 3.79
64) I6P; 1.89
65) L2I; 3.46
66) Q24C; 2.79
67) L13N; 3.02
68) V7S; 2.28
69) N23M; 2.42
70) M9E; 2.68
71) A15Q; 3.12
72) L14E; 3.48
73) Q24E; 2.74
74) V5R; 2.79
75) K1F; 3.58
76) L21F; 2.73
77) I20F; 2.73
78) L3A; 2.27
79) Q24R; 3.28
80) L21S; 2.57
81) V5K; 2.52
82) L3Y; 2.55
83) V16S; 2.89
84) W8G; 2.81
85) P17K; 3.35
86) Q24I; 2.79
87) S4V; 3.9
88) K1G; 2.55
89) V16G; 2.36
90) V5M; 1.71
91) L13A; 2.98
